Tested on: 7,8-diaminopelargonic acid synthase BioA (Mycobacterium tuberculosis)
Method: M. tuberculosis BioA enzyme inhibitors, primary screen, biochemical, plate reader, single point, HTS (AID 602481)
Condition Summary: purified M. tuberculosis BioA enzyme, at 9.99 µM, hits give high values
In all, about 360,000 compounds went through this assay and about 340 (0.094%) were called active. Shown is part of a subset that was picked to be rich in actives.
Property: inhibition (%)

1. CN(C)CC(=O)Nc1ccc2c(c1)[C@H]1C[C@@H](CC(=O)NCc3ccc(Cl)cc3)O[C@@H](CO)[C@H]1O2	0.123
2. COCC(=O)Nc1ccc2c(c1)OC[C@@H](C)N(Cc1ccccn1)C[C@H](C)[C@@H](OC)CN(C)C2=O	-0.629
3. O=S(=O)(N[C@@H]1CC[C@H](CCn2cc(-c3ccccc3F)nn2)O[C@H]1CO)c1ccc(F)cc1	1.57
4. C[C@H](CO)N1C[C@H](C)[C@H](CN(C)CC2CCCC2)Oc2ncc(-c3ccc(F)cc3)cc2C1=O	-5.25
